- target.or.test.system: CYP3A4 (Homo sapiens)
- Sequence (P08684 whole entry): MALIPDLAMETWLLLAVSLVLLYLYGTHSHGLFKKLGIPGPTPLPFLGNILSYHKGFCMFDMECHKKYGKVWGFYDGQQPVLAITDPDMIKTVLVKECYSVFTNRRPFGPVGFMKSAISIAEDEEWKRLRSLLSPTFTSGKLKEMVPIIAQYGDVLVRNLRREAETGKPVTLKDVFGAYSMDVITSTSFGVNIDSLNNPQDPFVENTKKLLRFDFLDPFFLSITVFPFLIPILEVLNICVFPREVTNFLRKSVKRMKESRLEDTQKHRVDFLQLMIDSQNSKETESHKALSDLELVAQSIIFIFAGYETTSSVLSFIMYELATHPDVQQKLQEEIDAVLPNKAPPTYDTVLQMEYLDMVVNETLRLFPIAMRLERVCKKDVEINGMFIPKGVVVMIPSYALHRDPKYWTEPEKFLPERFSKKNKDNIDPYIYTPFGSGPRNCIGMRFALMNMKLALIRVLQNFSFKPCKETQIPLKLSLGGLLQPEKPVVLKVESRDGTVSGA
- measurement.notes: Determination of compound Kiapp against recombinant CYP3A4 enzyme (BFC fluorescent substrate)
- Assay type: biochemical
- assay.context: Super. enzyme preparation, read-out: Kiapp (BFC, Super.)
Reported Ki values are given for each entry in this list.
Just so you know, I need the unit written after the number.

Record excerpt, results attached:
CCOc1ccncc1NS(=O)(=O)c1ccccc1C(=O)NCc1ccc(F)c(C(F)(F)F)c1 : 3.14 nM
Cc1ccncc1NS(=O)(=O)c1ccccc1C(=O)NCc1ccc(F)c(F)c1 : 12.5 nM
COc1cncc(NS(=O)(=O)c2ccc(F)cc2C(=O)NCCC(C)C)c1 : 31.6 nM

Let us examine a further case.
### Prompt For the compound COc1cncc(NS(=O)(=O)c2ccccc2C(=O)NC(C)(C)C)c1 , what Ki is on record?
### Response 74.5 nM
